Origin of the recorded values: patent US20080194585A1

Some compounds, each annotated with its measured Test I disease control rating.
Tested on: fusarium graminearium
experimentalDetails: Test I: wheat head scab, preventive spray on wheat seedlings
reportedConditions: 200 ppm; 100 = 100% disease control, 0 = no control
measuredQuantity: Test I disease control rating (%)

>>> readoutnumber("CC(C)c1c(Cl)nc(-n2cccn2)c(=O)n1-c1ccccc1")
0
>>> readoutnumber("COCC(C)n1c(-c2c(F)cccc2F)c(Cl)nc(-n2cccc2C#N)c1=O (centres unmarked)")
0
>>> readoutnumber("O=c1c(-n2cccn2)nc(Cl)c(-c2c(F)cc(F)cc2F)n1Cc1ccccc1Br")
91
>>> readoutnumber("Cc1ccn(-c2nc(Cl)c(C3CCCCC3)n(CC(C)C)c2=O)n1")
0
>>> readoutnumber("Cc1ccn(-c2nc(Cl)c(-c3cccc4c3OCO4)n(CC(C)C)c2=O)n1")
0

====

System: Colletotrichum orbiculare
experimentalDetails: Test B: cucumber Colletotrichum anthracnose, preventive spray on cucumber seedlings
reportedConditions: Colletotrichum orbiculare, in Cucumis sativus, 144 h, read-out: Test B disease control rating, 40 ppm (marked *); 100 = 100% disease control, 0 = no control
measuredQuantity: pest or weed control at 40 ppm (%)

>>> readoutnumber("O=c1c(-n2cccn2)nc(Cl)c(-c2c(F)cc(F)cc2F)n1-c1cccc(F)c1")
99
>>> readoutnumber("CC(C)Cn1c(-c2ccc(F)cc2Cl)c(Cl)nc(-n2cccn2)c1=O")
98
>>> readoutnumber("O=c1c(-n2cccn2)nc(Cl)c(-c2c(F)ccc(F)c2F)n1-c1ccccc1")
83
>>> readoutnumber("NC(=O)c1nc(Cl)c(-c2c(F)cc(F)cc2F)n(-c2cccc(F)c2)c1=O")
0
>>> readoutnumber("COc1ccc(Cn2c(-c3c(F)cccc3F)c(Cl)nc(-n3cccn3)c2=O)cc1")
0

====

Test system: Puccinia recondita f. sp. tritici
experimentalDetails: Test K: wheat leaf rust, preventive spray on wheat seedlings
reportedConditions: 200 ppm
Test K disease control rating reference
measuredQuantity: Test K disease control rating (%)

>>> readoutnumber("CC(C)Cn1c(-c2c(F)cccc2C(F)(F)F)c(Cl)nc(-n2cccn2)c1=O [compound 87]")
100
>>> readoutnumber("COc1cc(OC)c(-c2c(Cl)nc(-n3cccn3)c(=O)n2CC(C)C)c(OC)c1 [compound 86]")
0
>>> readoutnumber("CC(C)Cn1c(-c2ccc(Cl)cc2)c(Cl)nc(-n2cccn2)c1=O [compound 22]")
79
>>> readoutnumber("CCC(C)Cn1c(-c2c(F)cccc2F)c(Cl)nc(-n2ccc(C(F)(F)F)n2)c1=O (stereo not drawn) [compound 63]")
89
>>> readoutnumber("CC(C)Cn1c(-c2c(Cl)cccc2Cl)c(Cl)nc(-n2cncn2)c1=O [compound 40]")
99
>>> readoutnumber("COC(=O)c1ccc(-c2c(Cl)nc(-n3cccn3)c(=O)n2CC(C)C)cc1 [compound 147]")
80
>>> readoutnumber("CC(c1ccccc1)n1c(-c2c(F)cccc2F)c(Cl)nc(-n2cccn2)c1=O (stereo not drawn) [compound 107]")
98
>>> readoutnumber("CC(C)Cn1c(-c2cc(Cl)cc(Cl)c2)c(Cl)nc(-n2cccn2)c1=O [compound 42]")
0
>>> readoutnumber("CC(C)Cn1c(-c2ccc3c(c2)OCO3)c(Cl)nc(-n2cccn2)c1=O [compound 88]")
97
>>> readoutnumber("CC(C)Cn1c(C(C)(C)C)c(Cl)nc(-n2cccn2)c1=O [compound 203]")
0
>>> readoutnumber("Cc1ccnc(-c2nc(Cl)c(-c3c(F)cccc3F)n(CC(C)C)c2=O)c1 [compound 208]")
88
>>> readoutnumber("COC(=O)C(C)=NNc1nc(Cl)c(-c2c(F)cccc2F)n(CC(C)C)c1=O [compound 78]")
0
>>> readoutnumber("Cc1cccnc1-c1nc(Cl)c(-c2c(F)cccc2F)n(CC(C)C)c1=O [compound 210]")
0
>>> readoutnumber("CC(C)Cn1c(-c2cccc(F)c2F)c(Cl)nc(-n2cncn2)c1=O [compound 52]")
74
>>> readoutnumber("O=c1c(-n2cccn2)nc(Cl)c(-c2c(F)cccc2F)n1Cc1ccccc1 [compound 104]")
100
>>> readoutnumber("CC(C)Cn1c(-c2ccc(F)cc2)c(Cl)nc(-n2cccn2)c1=O [compound 143]")
68
>>> readoutnumber("CC(C)Cn1c(-c2cccc(F)c2F)c(Cl)nc(-n2cccn2)c1=O [compound 50]")
100
>>> readoutnumber("CC(C)Cn1c(-c2ccccc2C(F)(F)F)c(Cl)nc(-n2cccn2)c1=O [compound 141]")
60
